Origin of measurements: ChEMBL document CHEMBL4196088

# System: Fibroblast
# experiment: Induction of apoptosis in human primary fibroblasts assessed as accumulation at sub-G0/G1 phase at 10 uM after 24 hrs by propidium iodide staining based flow cytometry (reference value: 4.8%)
# Assay type: cell-based
observed property: Activity

- Cl.O[C@H]1CN[C@H](COCCCCCC/C=C/c2ccc(-c3ccccc3)cc2)C1: 14.6%
- CCCCCCCCCCCCCCCCCCOCC(COP(=O)([O-])OCC[N+](C)(C)C)OC (configuration not stated): 5.2%
- CCCCCCCC/C=C\CCCCCCCCOCC[C@H]1NC[C@H](O)[C@@H]1O: 8.7%
- Cl.O[C@H]1CN[C@H](COCCCCCCCCC/C=C/c2ccc(Oc3ccccc3)cc2)C1: 9.8%
- CCCCCC/C=C\CCCCCCCCOC[C@H]1NC[C@H](O)[C@@H]1O: 7.9%
- Cl.O[C@H]1CN[C@H](COCCCCCCCC/C=C/c2ccc(Oc3ccccc3)cc2)C1: 9.1%
- Cl.O[C@H]1CN[C@H](COCCCCCCCCC/C=C/c2ccc(-c3ccccc3)cc2)C1: 9.5%

====

# System: BXPC-3
# experiment: Induction of apoptosis in human BxPC3 cells assessed as accumulation at sub-G0/G1 phase harboring pSFFV-Bcl-XL at 20 uM after 48 hrs by propidium iodide staining based flow cytometry (reference value: 1.3%)
# Assay type: functional
observed property: Activity (%)

* CCCCCCCC/C=C\CCCCCCCCOCC[C@H]1NC[C@H](O)[C@@H]1O | 3.4
* CCCCCC/C=C\CCCCCCCCOC[C@H]1NC[C@H](O)[C@@H]1O | 6.7
* CCCCCCCCCCCCCCCCCCOCC(COP(=O)([O-])OCC[N+](C)(C)C)OC (configuration not stated) | 5
* CCCCCC/C=C/CCCCCCCCOC[C@H]1NC[C@H](O)[C@@H]1O | 5
* CCCCCCCCCCCCCCCCOC[C@H]1NC[C@H](O)[C@@H]1O | 4.8
* O[C@H]1[C@@H](O)CN[C@@H]1COCCCCCCCC/C=C/c1ccc(Oc2ccccc2)cc1 | 4.5
* Cl.O[C@H]1CN[C@H](COCCCCCCCCC/C=C/c2ccc(-c3ccccc3)cc2)C1 | 11.4

====

# Test system: PK9
# experiment: Induction of apoptosis in human PK9 cells assessed as accumulation at sub-G0/G1 phase at 20 uM after 48 hrs by propidium iodide staining based flow cytometry (reference value: 3.8%)
# Assay type: functional
Everything with Activity lower than 10% is Not satisfied; everything else, including exactly 10%, is Satisfied.

• CCCCCCCCCCCCCCCCCCOCC(COP(=O)([O-])OCC[N+](C)(C)C)OC (stereo not given) [EDELFOSINE] = Satisfied
• CCCCCCCCCCCCCCCCOC[C@H]1NC[C@H](O)[C@@H]1O = Not satisfied
• O[C@H]1[C@@H](O)CN[C@@H]1COCCCCCCCC/C=C/c1ccc(Oc2ccccc2)cc1 = Not satisfied
• Cl.O[C@H]1CN[C@H](COCCCCCC/C=C/c2ccc(-c3ccccc3)cc2)C1 = Satisfied
• CCCCCCCC/C=C\CCCCCCCCOCC[C@H]1NC[C@H](O)[C@@H]1O = Satisfied
• Cl.O[C@H]1CN[C@H](COCCCCCCCCC/C=C/c2ccc(-c3ccccc3)cc2)C1 = Satisfied
• Cl.O[C@H]1CN[C@H](COCCCCCCCC/C=C/c2ccc(Oc3ccccc3)cc2)C1 = Satisfied
• Cl.O[C@H]1CN[C@H](COCCCCCCCCC/C=C/c2ccc(Oc3ccccc3)cc2)C1 = Satisfied
• CCCCCC/C=C\CCCCCCCCOC[C@H]1NC[C@H](O)[C@@H]1O = Satisfied
• CCCCCC/C=C/CCCCCCCCOC[C@H]1NC[C@H](O)[C@@H]1O = Not satisfied
